assay: log p of the isomers of 3-methoximino-2-oxo-2,3-dihydrobenzofuran
Assay type: physicochemical
condition.info: product of Example 5, value per isomer; read-out: log p
quantity.measured: logP

**Query** For the compound CON=C1C(=O)Oc2ccccc21 (single isomer, unassigned; isomer 3) [E isomer] , give its reported logP.
**Result** 2.2
